System: IGROV1 ovarian
experiment description: NCI tumour cell line growth inhibition, 48 h
Give TGI for every item shown.

Would you please look over these solved cases?
CC(C)=CC[C@]12CCN(C)[C@H]1N(S(=O)(=O)c1ccccc1)c1ccccc12; > 100 µM
COCCOCCOCCOc1cccc2c1C(=O)c1cccc(OCCOCCOCCOC)c1C2=O; > 100 µM
NC(=O)NC1C(C(=O)O)N(Cc2ccccc2)C(=O)N1Cc1ccccc1 (stereo unspecified); > 100 µM
N#CC(C#N)=C/C=C(\Sc1ccc(F)cc1Cl)c1ccc(Cl)cc1; > 54.5 µM
C=Cn1c([N+](=O)[O-])cnc1/C=C/c1ccc(C(=O)OCCN2CCOCC2)cc1; > 100 µM

Dear reader, for each entry below, please note its TGI.
1. COc1cc2c(cc1OC)C(=O)/C(=C/c1cc(C)cc(C)c1)C2
2. COc1nc2ccc(COc3ccc(C(=O)O)cc3)cc2nc1OC
3. COc1cc2c(/C=C3/C(=O)Nc4ccc(Cl)cc43)c(Cl)[nH]c2cc1C
4. COC(=O)C1OC(O[C@H]2CC[C@]3(C)[C@H]4CC=C5[C@@H]6CC(C)(C)CC[C@]6(C(=O)OC6OCC(O)C(O)C6OC6OC(C)C(OC7OCC(O)C(O)C7O)C(OC7OCC(O)(CO)C7O)C6O)[C@H](O)C[C@@]5(C)[C@]4(C)CC[C@H]3C2(C)C)C(O)C(O)C1O (stereo partly specified)
5. COc1cc(OC)c2c(c1)OC(c1cccnc1)C(c1ccccc1)C2=O (stereo unspecified)
6. Cn1cc(C2=C(Nc3ccccc3)C(=O)NC2=O)c2ccccc21

1: > 42.4 µM; 2: > 100 µM; 3: 5.43 µM; 4: 27.1 µM; 5: > 100 µM; 6: > 25 µM

# map each compound to its TGI
1. O=C(/C(=C\I)c1ccccc1)c1ccccc1
2. COC(=O)[C@H](Cc1cn(C)cn1)NC(=O)[C@H](C)NC(=O)Nc1cc(C(F)(F)F)cc(C(F)(F)F)c1
3. Cc1ccc2nc(-c3ccc(C(C)(C)C)cc3)oc(=O)c2c1

["26.3 µM", "> 10 µM", "87.6 µM"]

Please give TGI, item by item, for the list that follows.
1. CCN1CCC(CNC(=O)c2ccc(N)cc2)N1CC (stereo unspecified)
2. CN(C)c1cccc(F)c1C(=O)NC(=O)Nc1ccc(Cl)cc1

1: > 100 µM; 2: > 100 µM
